The measured values listed here are drawn from patent US10030016B2.

- system.tested: PDK1 (Homo sapiens (Human), UniProt O15530)
- Sequence (O15530 51-359): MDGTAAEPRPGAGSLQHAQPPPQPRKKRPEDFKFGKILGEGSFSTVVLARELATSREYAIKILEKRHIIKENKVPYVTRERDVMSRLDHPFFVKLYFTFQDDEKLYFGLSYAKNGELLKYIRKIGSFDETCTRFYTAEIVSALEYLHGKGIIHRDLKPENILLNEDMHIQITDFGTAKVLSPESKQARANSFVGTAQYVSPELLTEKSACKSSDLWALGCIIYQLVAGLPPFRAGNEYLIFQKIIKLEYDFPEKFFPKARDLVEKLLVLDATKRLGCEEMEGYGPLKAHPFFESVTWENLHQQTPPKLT
- procedure.text: PDK1 kinase assay (coupled PDK1/AKT/FAM-crosstide assay, IMAP fluorescence polarization)
- Assay type: biochemical
- cond: inhibition of PDK1 in vitro
pIC50: −log10 of the molar value.
observed.property: pIC50

>>> endpoint_result("Nc1ncc(-c2ccc(CNc3ncc(C(F)(F)F)cc3C(=O)Nc3ccc(F)cc3)cc2)nc1-c1cccc(O)c1")
"> 7.00"
>>> endpoint_result("N#Cc1cnc(NCc2ccc(-c3cnc4[nH]c(=O)[nH]c4c3)cc2)c(C(=O)NCc2ccc(F)cc2)n1")
"> 7.00"
>>> endpoint_result("Nc1ccc(-c2ccc(CNc3ncccc3C(=O)NCc3cncc(F)c3)cc2)cn1")
"5.30 to 6.00"
>>> endpoint_result("CC(C)(O)Cn1cc(-c2ccc(CNc3ncc(C(F)(F)F)cc3C(=O)Nc3ccc(F)cc3)cc2)c2c(N)ncnc21")
"> 7.00"
>>> endpoint_result("O=C(NCc1ccc(F)c(F)c1)c1cccnc1NCc1cc(-c2c[nH]c3ncc(-c4ccc[nH]4)cc23)ccn1")
"> 7.00"
>>> endpoint_result("Nc1ncc(-c2ccc(CNc3ncc(C(F)(F)F)cc3C(=O)Nc3ccc(F)cc3)cc2)nc1O[C@H]1CCC[C@@H]1N")
"> 7.00"
>>> endpoint_result("C[C@H](NC(=O)c1nc(C#N)cnc1NCc1ccc(-c2cnc3[nH]nc(N(C)C)c3c2)cc1)c1ccc(F)c(F)c1")
"> 7.00"
>>> endpoint_result("C[C@H](NC(=O)c1cc(C#N)cnc1NCc1ccc(-c2cnc3[nH]c(=O)[nH]c3c2)cc1)c1ccc(F)cc1")
"> 7.00"
>>> endpoint_result("Nc1ncc(-c2ccc(CNc3ncc(C(F)(F)F)cc3C(=O)Nc3ccc(F)cc3)cc2)nc1O[C@@H]1CCNC1")
"> 7.00"
>>> endpoint_result("C[C@H](NC(=O)c1nc(C#N)cnc1N[C@H](CO)c1ccc(-c2cnc3[nH]nc(N)c3c2)cc1)c1ccc(F)c(F)c1")
"> 7.00"

For the 5 molecules below, give their pIC50 values.
1. Nc1n[nH]c2ncc(-c3ccc(CNc4ncc(C(F)(F)F)cc4C(=O)NC4COC4)cc3)cc12
2. C[C@H](NC(=O)c1cc(C#N)cnc1NCC1CCN(c2cnc(N)cn2)CC1)c1ccc(F)cc1
3. NCCNc1n[nH]c2ncc(-c3ccc(CNc4ncc(C(F)(F)F)cc4C(=O)Nc4ccc(F)cc4)cc3)cc12
4. O=C(NCc1ccc(F)cc1)c1cccnc1NCc1ccc(-c2cnc3[nH]ncc3c2)cc1
5. Cn1cc(-c2ccc(CNc3ncc(C(F)(F)F)cc3C(=O)Nc3ccc(F)cc3)cc2)c2c(N)ncnc21

RESULT:
["5.30 to 6.00", "5.30 to 6.00", "> 7.00", "> 7.00", "> 7.00"]

For the 2 molecules below, give their pIC50 values.
1. C[C@H](NC(=O)c1nccnc1NCc1ccc(-c2cnc3[nH]ncc3c2)cc1)c1ccc(F)cc1
2. N#Cc1cnc(NCc2ccc(-c3cnc4[nH]nc(N)c4c3)cc2)c(C(=O)Nc2ccc(Cl)cc2)n1

RESULT:
["> 7.00", "> 7.00"]

For the 4 molecules below, give their pIC50 values.
1. N#Cc1cnc2c(c1)c(NCc1ccc(F)c(F)c1)nn2Cc1ccc(-c2cnc(N)cn2)cc1
2. C[C@H](NC(=O)c1cc(C#N)cnc1NCc1ccc(-c2ccnc(N)n2)cc1)c1ccc(F)cc1
3. C[C@H](NC(=O)c1nc(C#N)cnc1NCc1ccc(-c2cnc(N)c(-c3cccc(O)c3)n2)cc1)c1ccc(F)c(F)c1
4. Nc1n[nH]c2ncc(-c3ccc(CNc4ncc(C(F)(F)F)cc4C(=O)Nc4ccc(C(F)(F)F)cc4)cc3)cc12

RESULT:
["6.00 to 7.00", "< 5.30", "> 7.00", "> 7.00"]

For the 5 molecules below, give their pIC50 values.
1. C[C@H](NC(=O)c1nc(C#N)cnc1NCc1ccc(-c2cn(CCCN(C)C)c3ncnc(N)c23)cc1)c1ccc(F)c(F)c1
2. C[C@H](NC(=O)c1cc(C#N)cnc1NCc1ccc(-c2cccc3n[nH]c(=O)n23)cc1)c1ccc(F)cc1
3. C[C@H](NC(=O)c1nc(C#N)cnc1NCc1ccc(-c2cnc(N)c(CCCN)n2)cc1)c1ccc(F)c(F)c1
4. Nc1n[nH]c2ncc(-c3ccc(CNc4ncc(C(F)(F)F)cc4C(=O)Nc4ccc(F)c(F)c4)cc3)cc12
5. Nc1n[nH]c2ncc(-c3ccc(CNc4ncc(C(F)(F)F)cc4C(=O)NCc4ccc(F)c(F)c4)cc3)cc12

RESULT:
["> 7.00", "< 5.30", "> 7.00", "> 7.00", "> 7.00"]

For the 4 molecules below, give their pIC50 values.
1. COC(=O)c1cc(-c2ccc(CNc3ncc(C#N)cc3C(=O)N[C@@H](C)c3ccc(F)cc3)cc2)cnc1N
2. C[C@H](NC(=O)c1cc(C#N)cnc1NCc1ccc(-c2ccc3n[nH]c(=O)n3c2)cc1)c1ccc(F)cc1
3. C[C@H](NC(=O)c1cc(C#N)cnc1NCc1ccc(-c2cnc(N)c(CCCN(C)C)n2)cc1)c1ccc(F)cc1
4. CNc1ncc2cc(O[C@H](C)CNc3ncc(C#N)cc3C(=O)N[C@@H](C)c3ccc(F)cc3)ccc2n1

RESULT:
1: > 7.00; 2: < 5.30; 3: > 7.00; 4: < 5.30
